Every entry's value here was drawn from patent US20040038855A1.

studyTarget: human Dopamine D2 receptor (Homo sapiens, UniProt P14416)
Construct: purchased BioSignal, Inc. (Montreal, Canada)
Sequence (P14416 whole entry): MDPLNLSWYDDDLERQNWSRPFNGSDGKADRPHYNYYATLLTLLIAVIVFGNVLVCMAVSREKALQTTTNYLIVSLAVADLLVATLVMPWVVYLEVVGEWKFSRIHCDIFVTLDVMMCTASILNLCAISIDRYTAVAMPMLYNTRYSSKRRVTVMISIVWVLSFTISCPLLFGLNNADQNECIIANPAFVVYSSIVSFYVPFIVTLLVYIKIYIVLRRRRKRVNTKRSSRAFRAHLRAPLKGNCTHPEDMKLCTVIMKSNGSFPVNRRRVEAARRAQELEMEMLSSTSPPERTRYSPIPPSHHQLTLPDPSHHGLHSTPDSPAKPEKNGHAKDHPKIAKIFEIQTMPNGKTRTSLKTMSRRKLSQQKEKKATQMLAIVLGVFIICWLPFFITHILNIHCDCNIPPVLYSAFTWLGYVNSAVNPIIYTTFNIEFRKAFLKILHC
experimentSummary: Binding affinity at the human dopamine D2 receptor
appliedConditions: Table 3c; read-out: hD2 Ki
endpointName: Ki

molecule	Ki
COc1ccc(O[C@H](CCN2CCC(c3cccc(NC(=O)C(C)C)c3)CC2)c2ccccc2)cc1OC	735 nM
CC(C)C(=O)Nc1cccc(C2CCN(CC[C@H](Oc3cccc(Cl)c3)c3ccccc3)CC2)c1	152 nM

Reported Ki ( CC(C)C(=O)Nc1cccc(C2CCN(Cc3cc(C(F)(F)F)cc(C(F)(F)F)c3)CC2)c1 ) = > 50000 nM

Record COc1ccc(C(C)=O)cc1O[C@@H](CCN1CCC(c2cccc(NC(=O)C(C)C)c2)CC1)c1ccccc1 , field Ki: 766 nM

Ki measured on COC(CCN1CCC(c2cccc(NC(=O)C(C)C)c2)CC1)c1ccc(Cl)cc1 (centres unmarked) = 9650 nM

Note to self: Ki recorded for CC(C)C(=O)Nc1cccc(C2CCN(CCCC(=O)c3ccccc3)CC2)c1 was 782 nM

Given item COC(=O)C1=C(C)N=C(SCc2ccc(OC)cc2)N(C(=O)NCCCN2CCC(c3cccc(NC(C)=O)c3)CC2)C1c1ccc([N+](=O)[O-])cc1 (centres unmarked) , the value recorded as its Ki is 23000 nM

// field: Ki; key: CC(=O)Nc1cccc(C2CCN(CCCNC(=O)N3C(=O)NC4=C(C(=O)OC4)C3c3ccc4c(c3)OCO4)CC2)c1 (centres unmarked) ; value = 3450 nM

* * *

studyTarget: human MCH1 receptor (Homo sapiens)
Sequence (Q99705 whole entry): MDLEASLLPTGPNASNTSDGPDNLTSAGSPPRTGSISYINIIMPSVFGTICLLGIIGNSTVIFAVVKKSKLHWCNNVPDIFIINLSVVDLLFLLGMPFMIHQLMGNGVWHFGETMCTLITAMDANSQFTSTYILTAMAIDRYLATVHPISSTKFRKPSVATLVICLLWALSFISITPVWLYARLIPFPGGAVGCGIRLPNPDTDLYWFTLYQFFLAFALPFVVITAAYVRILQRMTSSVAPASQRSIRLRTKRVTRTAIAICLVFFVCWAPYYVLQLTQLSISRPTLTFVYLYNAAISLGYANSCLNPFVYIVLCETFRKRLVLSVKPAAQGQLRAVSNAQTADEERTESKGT
experimentSummary: Competition binding, membrane preparations of A293 cells expressing the human MCH1 receptor, [3H] Compound 10 as radioligand
Set-up: expressed in transfected cells
appliedConditions: Table 3b; A293 cell membranes, [3H] Compound 10; read-out: hMCH1* Ki
Counter-ions that a name gives are not always drawn.
endpointName: pKi
Hey, just a heads up that pKi is the negative log base 10 of the concentration in molar.

Example results:
compound	pKi
COCC1=C(C(=O)OC)C(c2ccc(F)c(F)c2)N(C(=O)NCCCN2CCC(c3cccc4ccccc34)CC2)C(=O)N1 (single isomer, unassigned; (+))	7.30
CCC1=C(C(=O)O)C(c2ccc(F)c(F)c2)N(C(=O)NCCCN2CCC3(CC2)OCc2ccccc23)C(=O)N1 (single isomer, unassigned; (+)) [Example 4, HYDROCHLORIDE]	6.88

Consider now this further compound.
# pKi (compound: COCC1=C(C(=O)OC)C(c2ccc(F)c(F)c2)N(C(=O)NCCCN2CCC(c3cccc(NC(C)=O)c3)CC2)C(=O)N1 (single isomer, unassigned; (-)) ) is 7.40

* * *

studyTarget: human NPY5 receptor (Homo sapiens, UniProt Q15761)
Construct: expressed in transfected cells
Sequence (Q15761 whole entry): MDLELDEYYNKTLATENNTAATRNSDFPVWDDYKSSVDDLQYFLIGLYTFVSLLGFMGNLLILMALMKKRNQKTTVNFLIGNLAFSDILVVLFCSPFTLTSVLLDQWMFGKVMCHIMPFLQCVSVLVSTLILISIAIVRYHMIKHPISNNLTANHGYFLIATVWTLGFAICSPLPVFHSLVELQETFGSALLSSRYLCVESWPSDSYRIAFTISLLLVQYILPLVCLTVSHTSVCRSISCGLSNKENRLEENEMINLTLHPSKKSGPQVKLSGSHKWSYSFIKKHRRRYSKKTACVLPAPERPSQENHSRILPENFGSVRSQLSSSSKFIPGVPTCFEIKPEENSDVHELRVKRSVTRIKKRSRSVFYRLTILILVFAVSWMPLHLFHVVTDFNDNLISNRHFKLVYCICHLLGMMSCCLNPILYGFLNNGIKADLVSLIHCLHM
experimentSummary: Binding affinity at the human NPY5 receptor
appliedConditions: Table 3a; read-out: hNPY5 Ki
pKi: −log10 of the molar value.
The entries below come with measured pKi values attached.

lineNotation	studyTarget	endpointName	reported
CCCCN(CCCC)c1ccc(CNC[C@H]2CC[C@H](NC(=O)c3cccc4ccccc34)CC2)cc1	human NPY5 receptor (Homo sapiens, UniProt Q15761)	pKi	< 4.30

The compound listed as CN1CN(c2ccccc2)C2(CCN(CCCC(=O)c3ccc(F)cc3)CC2)C1=O has a reported pKi of < 4.30

Reported pKi for Cc1cc(O)cc(O)c1/C=N/c1ccc(-c2cn3ccccc3n2)cc1 was < 4.30
